Experimental System: MHC class I allele A*0301 (A3) (Homo sapiens)
Measurement Description: iTopia peptide binding assay, A*0301
Measurement Context: percent of positive control peptide binding; peptide at 1.11×10^−5M
Can you tell me Peptide binding, MHC Class I Molecule A*0301 for the items I'm about to list?

Solved cases (5 shown):
{"columns": ["Biosequence", "Reported Value"],
 "data": [
  ["VKCVNRNLT [Peptide 38]", "0 % of control"],
  ["MRNRVLLEL [Peptide 165]", "4 % of control"],
  ["PDQCPALCE [Peptide 30]", "0 % of control"],
  ["ASAVSAQPP [Peptide 25]", "0 % of control"],
  ["HLESLHLED [Peptide 130]", "2 % of control"]
]}

Below is a list of sequences. For each, state its recorded Peptide binding, MHC Class I Molecule A*0301.
1. PPEDERQNR [Peptide 93]
2. GAIFLLVLY [Peptide 184]
3. LPSLRHLDL [Peptide 117]
4. RLARLALVL [Peptide 9]

["0 % of control", "5 % of control", "1 % of control", "48 % of control"]

Below is a list of sequences. For each, state its recorded Peptide binding, MHC Class I Molecule A*0301.
1. PWVCDCHMA [Peptide 148]
2. LHLEDNALK [Peptide 132]

["0 % of control", "5 % of control"]

---

Experimental System: MHC class I allele A*0201 (A2) (Homo sapiens, UniProt P04439, D140Y/D185E/D98H/E176V/E277Q/G131W/G231S/I119V/I121R/I166T/I218V/L300P/L318F/N151K/N90K/P208A/P217A/Q86G/Q94H/R138H/R169H/T345S)
Measurement Description: iScore multi-parametric analysis, A*0201
Assay type: binding
Measurement Context: level of binding: >0.5, 0.25-0.5, <0.25
No end group written: not given here.
Quantity Kind: iScore, MHC Class I Molecule A*0201
One number for each entry.

Solved cases (5 shown):
{"columns": ["Biosequence", "Quantity Kind", "Reported Value"],
 "data": [
  ["APFLASAVS [Peptide 23]", "iScore, MHC Class I Molecule A*0201", 0.041],
  ["QTSYVFLGI [Peptide 177]", "iScore, MHC Class I Molecule A*0201", 0.127],
  ["CVNRNLTEV [Peptide 39]", "iScore, MHC Class I Molecule A*0201", 0.05],
  ["AQLPSLRHL [Peptide 116]", "iScore, MHC Class I Molecule A*0201", 0.162],
  ["VFLGIVLAL [Peptide 179, VFLGIVLAL]", "iScore, MHC Class I Molecule A*0201", 0.606]
]}

Below is a list of sequences. For each, state its recorded iScore, MHC Class I Molecule A*0201.
1. YVSFRNLTH [Peptide 126]
2. VRAGAFEHL [Peptide 67]
3. LDLSHNPLA [Peptide 74]
4. LTHLESLHL [Peptide 129]

[0, 0, 0.226, 0.143]

Below is a list of sequences. For each, state its recorded iScore, MHC Class I Molecule A*0201.
1. ADPRLTNLS [Peptide 204]
2. FLASAVSAQ [Peptide 24]
3. RSFEGMVVA [Peptide 97]

1: 0; 2: 0.134; 3: 0.189

Below is a list of sequences. For each, state its recorded iScore, MHC Class I Molecule A*0201.
1. LDLSNNSLV [Peptide 120]
2. AVSAQPPLP [Peptide 26]
3. LQGLPHIRV [Peptide 141]
4. VLLELNSAD [Peptide 167]

[0.158, 0.062, 0.2, 0.105]

The measured values listed here are drawn from patent US8147838B2.
